Data origin, for the record: ChEMBL document CHEMBL1141900

Readings of MIC for the listed compounds
- System: Staphylococcus aureus
- experimental-protocol: Minimum inhibitory concentration of the compound against erythromycin-susceptible Staphylococcus aureus Smith OC4172 was determined
- Type: functional
value-kind: MIC (µg/mL)

compound	result-value
CC[C@H]1OC(=O)[C@@](C)(F)C(=O)[C@H](C)[C@@H](O[C@@H]2O[C@H](C)C[C@H](N(C)C)[C@H]2O)[C@](C)(OC(=O)NC/C=C/c2ccc(-c3ccccn3)cc2)C[C@@H](C)C(=O)[C@H](C)[C@H]2NC(=O)O[C@@]21C	0.25
CC[C@H]1OC(=O)[C@@](C)(F)C(=O)[C@H](C)[C@@H](O[C@@H]2O[C@H](C)C[C@H](N(C)C)[C@H]2O)[C@](C)(OC(=O)NC/C=C/c2cncc(-c3ccccn3)c2)C[C@@H](C)C(=O)[C@H](C)[C@H]2NC(=O)O[C@@]21C	0.25
CC[C@H]1OC(=O)[C@@](C)(F)C(=O)[C@H](C)[C@@H](O[C@@H]2O[C@H](C)C[C@H](N(C)C)[C@H]2O)[C@](C)(OC(=O)NC/C=C/c2ccc(-c3ncccn3)o2)C[C@@H](C)C(=O)[C@H](C)[C@H]2NC(=O)O[C@@]21C	0.5
CC[C@H]1OC(=O)[C@@](C)(F)C(=O)[C@H](C)[C@@H](O[C@@H]2O[C@H](C)C[C@H](N(C)C)[C@H]2O)[C@](C)(OC(=O)NCCOCc2ccc(-c3ncccn3)cc2)C[C@@H](C)/C(=N\O)[C@H](C)[C@H]2NC(=O)O[C@@]21C	0.5
CC[C@H]1OC(=O)[C@@](C)(F)C(=O)[C@H](C)[C@@H](O[C@@H]2O[C@H](C)C[C@H](N(C)C)[C@H]2O)[C@](C)(OC(=O)NC/C=C/c2ccc(-c3ccncn3)cc2)C[C@@H](C)C(=O)[C@H](C)[C@H]2NC(=O)O[C@@]21C	0.25
CC[C@H]1OC(=O)[C@@](C)(F)C(=O)[C@H](C)[C@@H](O[C@@H]2O[C@H](C)C[C@H](N(C)C)[C@H]2O)[C@](C)(OC(=O)NC/C=C/c2cn(-c3ncccn3)cn2)C[C@@H](C)C(=O)[C@H](C)[C@H]2NC(=O)O[C@@]21C	0.12
CC[C@H]1OC(=O)[C@@](C)(F)C(=O)[C@H](C)[C@@H](O[C@@H]2O[C@H](C)C[C@H](N(C)C)[C@H]2O)[C@](C)(OC(=O)NC/C=C/c2ccc(-c3cccnn3)cc2)C[C@@H](C)/C(=N\O)[C@H](C)[C@H]2NC(=O)O[C@@]21C	0.5
CC[C@H]1OC(=O)[C@@](C)(F)C(=O)[C@H](C)[C@@H](O[C@@H]2O[C@H](C)C[C@H](N(C)C)[C@H]2O)[C@](C)(OC(N)=O)C[C@@H](C)C(=O)[C@H](C)[C@H]2NC(=O)O[C@@]21C	1

---

- Test system: Streptococcus pneumoniae
- experimental-protocol: Minimum inhibitory concentration of the compound against 3 […] Streptococcus pneumoniae OC4051 with an erm(B)-ribosomal methylase-mediated resistance was determined
- Assay type: functional
Below, each entry is listed alongside its reported MIC.

compound	op	MIC / µg/mL
CC[C@H]1OC(=O)[C@@](C)(F)C(=O)[C@H](C)[C@@H](O[C@@H]2O[C@H](C)C[C@H](N(C)C)[C@H]2O)[C@](C)(OC(=O)NC/C=C/c2ccc(-n3cnnc3)cc2)C[C@@H](C)C(=O)[C@H](C)[C@H]2NC(=O)O[C@@]21C	=	0.12
CC[C@H]1OC(=O)[C@@](C)(F)C(=O)[C@H](C)[C@@H](O[C@@H]2O[C@H](C)C[C@H](N(C)C)[C@H]2O)[C@](C)(OC(N)=O)C[C@@H](C)C(=O)[C@H](C)[C@H]2NC(=O)O[C@@]21C	>	16

---

- Tested on: Staphylococcus aureus
- experimental-protocol: Minimum inhibitory concentration of the compound against erythromycin-susceptible Staphylococcus aureus Smith OC4172 was determined
- Assay type: functional
# MIC listing for each entry below

compound	MIC (µg/mL)
CC[C@H]1OC(=O)[C@@](C)(F)C(=O)[C@H](C)[C@@H](O[C@@H]2O[C@H](C)C[C@H](N(C)C)[C@H]2O)[C@](C)(OC(=O)NC/C=C/c2ccc(-c3cnccn3)cc2)C[C@@H](C)C(=O)[C@H](C)[C@H]2NC(=O)O[C@@]21C	0.25
CC[C@H]1OC(=O)[C@@](C)(F)C(=O)[C@H](C)[C@@H](O[C@@H]2O[C@H](C)C[C@H](N(C)C)[C@H]2O)[C@](C)(OC(=O)NC/C=C/c2cn(-c3cnccn3)cn2)C[C@@H](C)C(=O)[C@H](C)[C@H]2NC(=O)O[C@@]21C	0.25

---

compounds and their reported MIC
- Test system: Streptococcus pneumoniae
- experimental-protocol: Minimum inhibitory concentration of the compound against 3 […] Streptococcus pneumoniae OC4421 with an mef(A) efflux-mediated resistance was determined
- Type: functional
value-kind: MIC (µg/mL)

compound	result-value
CC[C@H]1OC(=O)[C@H](C)C(=O)[C@H](C)[C@@H](O[C@@H]2O[C@H](C)C[C@H](N(C)C)[C@H]2O)[C@](C)(OC)C[C@@H](C)C(=O)[C@H](C)[C@H]2N(CCCCn3cnc(-c4cccnc4)c3)C(=O)O[C@]12C [TELITHROMYCIN]	0.12
CC[C@H]1OC(=O)[C@@](C)(F)C(=O)[C@H](C)[C@@H](O[C@@H]2O[C@H](C)C[C@H](N(C)C)[C@H]2O)[C@](C)(OC(=O)NC/C=C/c2ccc(-n3cnnc3)cc2)C[C@@H](C)C(=O)[C@H](C)[C@H]2NC(=O)O[C@@]21C	0.5
CC[C@H]1OC(=O)[C@@](C)(F)C(=O)[C@H](C)[C@@H](O[C@@H]2O[C@H](C)C[C@H](N(C)C)[C@H]2O)[C@](C)(OC(=O)NC/C=C/c2ccc3ncccc3c2)C[C@@H](C)/C(=N\O)[C@H](C)[C@H]2NC(=O)O[C@@]21C	0.12
CC[C@H]1OC(=O)[C@@](C)(F)C(=O)[C@H](C)[C@@H](O[C@@H]2O[C@H](C)C[C@H](N(C)C)[C@H]2O)[C@](C)(OC(=O)NC/C=C/c2ccc(-n3cccn3)cc2)C[C@@H](C)C(=O)[C@H](C)[C@H]2NC(=O)O[C@@]21C	0.5

---

- Test system: Streptococcus pneumoniae
- experimental-protocol: Minimum inhibitory concentration of the compound against 3 […] Streptococcus pneumoniae OC4051 with an erm(B)-ribosomal methylase-mediated resistance was determined
- Type: functional

compound	MIC
CC[C@H]1OC(=O)[C@@](C)(F)C(=O)[C@H](C)[C@@H](O[C@@H]2O[C@H](C)C[C@H](N(C)C)[C@H]2O)[C@](C)(OC(=O)NC/C=C/c2cn(-c3cnccn3)cn2)C[C@@H](C)C(=O)[C@H](C)[C@H]2NC(=O)O[C@@]21C	0.06 µg/mL
CC[C@H]1OC(=O)[C@@](C)(F)C(=O)[C@H](C)[C@@H](O[C@@H]2O[C@H](C)C[C@H](N(C)C)[C@H]2O)[C@](C)(OC(=O)NC/C=C/c2cn(-c3ncccn3)cn2)C[C@@H](C)C(=O)[C@H](C)[C@H]2NC(=O)O[C@@]21C	0.06 µg/mL
CC[C@H]1OC(=O)[C@@](C)(F)C(=O)[C@H](C)[C@@H](O[C@@H]2O[C@H](C)C[C@H](N(C)C)[C@H]2O)[C@](C)(OC(=O)NC/C=C/c2ccc(-c3cnccn3)cc2)C[C@@H](C)C(=O)[C@H](C)[C@H]2NC(=O)O[C@@]21C	0.06 µg/mL
CC[C@H]1OC(=O)[C@@](C)(F)C(=O)[C@H](C)[C@@H](O[C@@H]2O[C@H](C)C[C@H](N(C)C)[C@H]2O)[C@](C)(OC(N)=O)C[C@@H](C)/C(=N\O)[C@H](C)[C@H]2NC(=O)O[C@@]21C	2 µg/mL
CC[C@H]1OC(=O)[C@@](C)(F)C(=O)[C@H](C)[C@@H](O[C@@H]2O[C@H](C)C[C@H](N(C)C)[C@H]2O)[C@](C)(OC(=O)NC/C=C/c2ccc(-c3ncccn3)o2)C[C@@H](C)C(=O)[C@H](C)[C@H]2NC(=O)O[C@@]21C	0.12 µg/mL
CC[C@H]1OC(=O)[C@@](C)(F)C(=O)[C@H](C)[C@@H](O[C@@H]2O[C@H](C)C[C@H](N(C)C)[C@H]2O)[C@](C)(OC(=O)NC/C=C/c2cncc(-c3ccccn3)c2)C[C@@H](C)C(=O)[C@H](C)[C@H]2NC(=O)O[C@@]21C	0.06 µg/mL
CC[C@H]1OC(=O)[C@@](C)(F)C(=O)[C@H](C)[C@@H](O[C@@H]2O[C@H](C)C[C@H](N(C)C)[C@H]2O)[C@](C)(OC(=O)NCCOCc2ccc(-c3ncccn3)cc2)C[C@@H](C)/C(=N\O)[C@H](C)[C@H]2NC(=O)O[C@@]21C	0.06 µg/mL
CC[C@H]1OC(=O)[C@@](C)(F)C(=O)[C@H](C)[C@@H](O[C@@H]2O[C@H](C)C[C@H](N(C)C)[C@H]2O)[C@](C)(OC(=O)NC/C=C/c2ccc(-c3ccncn3)cc2)C[C@@H](C)C(=O)[C@H](C)[C@H]2NC(=O)O[C@@]21C	0.06 µg/mL
